Recorded values, source patent US8575186B2.

endpoint name: melting point

input: What value of measured melting point is listed for CN(C)c1cccc(S(=O)(=O)c2ccc3c(c2)c2c(n3C)CC3CCC2N3)c1.Cl (stereo not drawn) ?
output: 204 to 208 °C (dec.)

input: What value of measured melting point is listed for Cc1cc(S(=O)(=O)c2cccc(C(F)(F)F)c2)cc2c3c(n(C)c12)CC1CCC3N1.Cl (stereo not drawn) ?
output: 227 to 229 °C

input: What value of measured melting point is listed for Cl.Cn1c2c(c3cc(S(=O)(=O)c4ccccc4)cc(F)c31)C1CCC(C2)N1 (stereo not drawn) ?
output: 251 to 256 °C (dec.)

input: What value of measured melting point is listed for Cl.Cn1c2c(c3cc(S(=O)(=O)c4ccc(O)cc4)ccc31)C1CCC(C2)N1 (stereo not drawn) ?
output: 210 to 212 °C

input: What value of measured melting point is listed for Cl.Cn1c2c(c3cc(S(=O)(=O)c4cccc(O)c4)ccc31)C1CCC(C2)N1 (stereo not drawn) ?
output: 208 to 212 °C

input: What value of measured melting point is listed for Cl.Cn1c2c(c3cc(S(=O)(=O)c4cccc5ccccc45)ccc31)C1CCC(C2)N1 (stereo not drawn) ?
output: 229 to 231 °C

input: What value of measured melting point is listed for Cl.Cn1c2c(c3cc(S(=O)(=O)c4cc(F)cc(F)c4)ccc31)C1CCC(C2)N1 (stereo not drawn) ?
output: 230 to 235 °C (dec.)

input: What value of measured melting point is listed for Cl.Cn1c2c(c3cc(S(=O)(=O)c4ccccc4)ccc31)C1CCC(C2)N1 (stereo not drawn) ?
output: 238 to 244 °C (dec.)

input: What value of measured melting point is listed for CNc1cccc(S(=O)(=O)c2ccc3c(c2)c2c(n3C)CC3CCC2N3)c1.Cl (stereo not drawn) ?
output: 208 to 212 °C (dec.)

---

- study target: human 5-HT6 receptor (Homo sapiens (Human))
- Sequence (P50406 whole entry): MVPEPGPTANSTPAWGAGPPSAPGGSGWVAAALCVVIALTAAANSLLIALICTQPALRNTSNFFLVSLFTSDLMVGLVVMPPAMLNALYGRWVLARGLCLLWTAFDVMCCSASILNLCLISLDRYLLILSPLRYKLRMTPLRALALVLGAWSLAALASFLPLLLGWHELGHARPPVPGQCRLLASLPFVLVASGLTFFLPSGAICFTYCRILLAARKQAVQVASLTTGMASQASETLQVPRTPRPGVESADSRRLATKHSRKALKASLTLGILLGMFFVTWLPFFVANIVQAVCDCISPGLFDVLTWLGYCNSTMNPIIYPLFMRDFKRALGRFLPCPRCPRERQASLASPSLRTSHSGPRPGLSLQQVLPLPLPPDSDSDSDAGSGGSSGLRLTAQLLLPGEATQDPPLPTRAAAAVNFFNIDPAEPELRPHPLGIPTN
- assay text: radioligand binding assay (SPA format), [N-methyl-3H]-LSD
- reported conditions: read-out: human 5HT6 Ki; human 5-HT6 receptor membranes, 10 nM [3H]-LSD
Provide the recorded Ki for the entries that follow.
Form entry: value (nM) — number only.

input: What value of measured Ki is listed for Cn1c2c(c3cc(S(=O)(=O)n4cc(F)c5ccccc54)ccc31)C1CCC(C2)N1 (centres unmarked) ?
output: 2.7

input: What value of measured Ki is listed for Cn1c2c(c3cc(S(=O)(=O)n4ccc5cc(Cl)ccc54)ccc31)C1CCC(C2)N1 (centres unmarked) [Example 195] ?
output: 4.6

input: What value of measured Ki is listed for Cn1c2c(c3cc(S(=O)(=O)c4cccc(OCc5ccncc5)c4)ccc31)C1CCC(C2)N1 (centres unmarked) ?
output: 11

input: What value of measured Ki is listed for Cn1c2c(c3cc(S(=O)(=O)c4cccc5cccnc45)ccc31)C1CCC(C2)N1 (centres unmarked) [Example 169] ?
output: 27

input: What value of measured Ki is listed for Cn1c2c(c3cc(S(=O)(=O)c4cccc(C(F)(F)F)c4)cc(O)c31)C1CCC(C2)N1 (centres unmarked) ?
output: 0.53

input: What value of measured Ki is listed for CCOc1cc(S(=O)(=O)c2ccccc2)cc2c3c(n(C)c12)CC1CCC3N1 (centres unmarked) [Example 234] ?
output: 4.9

input: What value of measured Ki is listed for Cn1c2c(c3cc(S(=O)(=O)c4cccc(OCc5ccccc5)c4)ccc31)C1CCC(C2)N1 (centres unmarked) ?
output: 1.9

input: What value of measured Ki is listed for Cl.Cn1c2c(c3cc(S(=O)(=O)c4cncc(Cl)c4)ccc31)C1CCC(C2)N1 (centres unmarked) [Example 58, hydrochloride] ?
output: 44
